Method description: qHTS for Inhibitors of the Functional Ribonucleoprotein Complex (vRNP) of Lassa (LASV) Arenavirus: Viability assay - alamar blue signal for LASV Primary Screen (AID 1347083); further: nearly all actives have a fitted effect of over 80% in size
Conditions used: cell viability, alamar blue fluorescence (LASV minigenome counter-screen); series mostly up to 57.5 µM
Inconclusive results are not listed. Calls of active or inactive are those of the source. The call rests on the fitted dose curve; tested in HEK293 reporter line.
Readout: activity change, negative = reduced viability

Some solved entries appear below for comparison.
C=C1C[C@H]2[C@@H]3C=C(C)C4=CC(=O)CC[C@]4(C)[C@H]3CC[C@]2(C)[C@@]1(OC(C)=O)C(C)=O; inactive
CC(C)NCCCC1(C(N)=O)c2ccccc2-c2ccccc21; inactive
CCN(CC)C(=O)Nc1ccc(OCC(O)CNC(C)(C)C)c(C(C)=O)c1 (stereo unspecified); inactive
O=C(NCCc1c[nH]c2ccccc12)c1cccnc1; inactive
O=C(Nc1ncc([N+](=O)[O-])s1)c1cccs1; inactive
CC1COC2(c3ccccc3Cl)c3cc(Cl)ccc3NC(=O)CN12 (stereo unspecified); inactive

IN: Can you look up the measured activity change, negative = reduced viability of CCC(=O)O[C@H]1CC[C@H]2[C@@H]3CCC4=CC(=O)CC[C@]4(C)[C@H]3CC[C@]12C for me?
OUT: inactive

IN: Looking for the measured activity change, negative = reduced viability of NC(=O)CCCCC1CCSS1 (stereo unspecified) , can you help?
OUT: inactive
